- ASSAY_NOTES: yeast display, Sf9 membrane polyspecificity reagent, FACS + sequencing; frameworks hold sequencing errors
REPORTED_PROPERTY: polyreactivity (PSR sort gate)

Solved cases below.
INSERT INTO measurements (residue_sequence, result) VALUES
  ('QVQLVESGGGLVQAGGSLRLSCAASGRTFGYYRMGWYRQAPGKERELVAAITGSGGSTYYADSVKGRFTISRDNAKNTVYLQMNSLKAEDTAVYYCAATYLSRWTLYDYWGQGTQVTVSS', 'high polyreactivity'),
  ('QVQLVESAGGLVQAGGSLRLSCAASGRIFLYNAMGWYRQAPGKERELVAVISSNGGRTYYADSVKGRFTISRDNAKNTVYLQMNSLKPEDTAVYYCAAVQHYVTHMDYWGQGTQVTVSS', 'low polyreactivity'),
  ('QVQLVESGGGLVQAGGSLRLSCAASGRTFAYNTMGWYRQAPGKERELVAAISTSGVRTFYADSVKGRFTISRDNAKNTVYLQMNSLKPEDTAVYSYDWGQGTQVTVSS', 'low polyreactivity'),
  ('QFQLVESGGGLVQAGGSLRLSCAASGFIFSNNAMGWYRQAPGKDRELVAAISKSGGGTSYADSVKGRFTISRDNAKNTVYLQMNSLKPDDTAVYYCAKEWRKKTDYDYWGQGTQVTVSS', 'high polyreactivity'),
  ('QDQLVDSGGGLVQAGGSLRLSCAASGSIYDPYAMGWYRQAPGKERELVATIDWDDASTYYADSVKGRFTISRDNAKNTVYLQMNSLKPEDTAVYYCATRDRAGYYYWGQGTQVTVSS', 'high polyreactivity'),
  ('QVQLVESGGGLVQAGGSLRLSCAASGSTFTNNGMGWYRQAPGKERELVATISWDGDSTYYADSVKGRFTISRDNAKNTVYLQMISQKPEDTAVYYCAADEWGSDSALNFEYWGQGTQVTVSS', 'low polyreactivity'),
  ('QVQRVESGGGLVQAGGSLSLSCAASGRTCGVYAMGWYRQAPGKERELGASSSRSAGSTYYADSVKGRFTISRDNAKNTVYFQMNSLKTEDTAVYYCAAVYKRGMDYWGQGTQVTVSS', 'high polyreactivity'),
  ('QVQLVESGGGLVQAGGSLRLSCAASGSIFTVNAMGWYRQAPGKERELVAAIDGSSGSTNYADSVKGRFTISRDNAKNTVYLQMNSLKPEDTAVYYCAADWSYEYGYWGQGTQVTVSS', 'low polyreactivity');

Exercise: Query (sequence): `QVQLVDSGGGLVQAGGSLRLSCAASGSTFSHYTMGWYRQAPGKERELVAAINYGGASTYYADSVKGRFTISRDNAKNTVYLQMNSLKPEDTAVYYCAAANRPSEQDNYWGQGTQVTVSS` ; field requested: polyreactivity (PSR sort gate)
Solution: low polyreactivity

Exercise: Then what about the sequence `QVQLVESGGGLVQAGGSLRLSCAASGSTFKYYSIGWYRQAPGKERELVASITGRTVGTYYADSVKGRFTISRDIAKNTVYLQMNSLKPEDTAVFYCATDLYWDYPDKGYTVSWWYGYWGQGTQVTVSS` ?
Solution: low polyreactivity

Exercise: Then what about the sequence `QVQLVESGGRLVQSGGSLRLSCAASGSIFVWNAMGWYRQAPGKERELVAAISYDGGSTYYADSVKGRFTISRDNAKNTVYLQMNSLKPEDTAVYYCAFEYVYWLSWYFQYDYWGQGTQVTVSS` ?
Solution: low polyreactivity
